- Measured On: T1, SHANK3 PDZ (UniProt Q9BYB0)
- T1 chain: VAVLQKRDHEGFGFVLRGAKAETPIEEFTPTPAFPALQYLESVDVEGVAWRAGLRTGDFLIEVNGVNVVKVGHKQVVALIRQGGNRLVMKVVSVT
- Assay Overview: FP
Measured Metric: Kd (µM)

| Binder | Measured Metric | Value Observed |
| --- | --- | --- |
| YNRTNRSRMPNLNDLKETAL [CDKL5-1 941-960] | Kd | 8.6 |
